Data origin: patent US20240109912A1

biological target: CDK7/cyclinH/MAT1 trimeric complex (Homo sapiens (Human)); experiment: In vitro CDK7 assay, potency of irreversible covalent inhibitors (kinact/KI); settings: read-out: CDK7 (20 nM enz.) (kinact, s^−1), 20 nM enz.
Sequence (P50613 whole entry): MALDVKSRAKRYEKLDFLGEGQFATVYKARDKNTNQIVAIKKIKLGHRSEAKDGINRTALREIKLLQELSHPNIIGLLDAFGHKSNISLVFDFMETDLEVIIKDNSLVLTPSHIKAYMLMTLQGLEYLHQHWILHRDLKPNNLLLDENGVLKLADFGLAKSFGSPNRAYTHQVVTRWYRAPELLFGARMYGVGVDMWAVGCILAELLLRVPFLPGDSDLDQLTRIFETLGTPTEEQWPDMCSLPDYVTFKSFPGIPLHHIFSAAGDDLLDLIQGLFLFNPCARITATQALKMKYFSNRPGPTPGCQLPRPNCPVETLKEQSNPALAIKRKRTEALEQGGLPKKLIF
Sequence (P51946 whole entry partner): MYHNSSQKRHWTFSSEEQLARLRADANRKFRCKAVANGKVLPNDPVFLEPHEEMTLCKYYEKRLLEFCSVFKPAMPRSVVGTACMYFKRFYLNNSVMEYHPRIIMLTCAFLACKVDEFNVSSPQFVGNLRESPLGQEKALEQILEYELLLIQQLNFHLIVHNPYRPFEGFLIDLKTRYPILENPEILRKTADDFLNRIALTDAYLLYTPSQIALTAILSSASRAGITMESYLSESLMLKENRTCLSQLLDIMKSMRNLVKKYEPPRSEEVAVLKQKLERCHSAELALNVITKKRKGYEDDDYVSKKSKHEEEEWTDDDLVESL
Sequence (P51948 whole entry partner): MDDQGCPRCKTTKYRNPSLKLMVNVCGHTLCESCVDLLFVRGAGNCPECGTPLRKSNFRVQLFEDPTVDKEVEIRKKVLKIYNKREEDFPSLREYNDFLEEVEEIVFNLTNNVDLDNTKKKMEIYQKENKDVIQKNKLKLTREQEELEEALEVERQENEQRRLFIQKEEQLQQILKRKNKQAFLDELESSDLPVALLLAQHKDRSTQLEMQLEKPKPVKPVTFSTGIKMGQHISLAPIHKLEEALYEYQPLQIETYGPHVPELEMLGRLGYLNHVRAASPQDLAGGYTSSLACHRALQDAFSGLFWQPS
experimental-endpoint: kinact (s⁻¹)
State just the number; it will be interpreted in s⁻¹.

• C=CC(=O)N1CC(N2CCC(c3ccc4c(c3)Nc3ncnc(N5CCOCC5)c3[C@H](C)O4)CC2)C1 (single isomer, unassigned) = 7.7e-05
• CC#CC(=O)N1CC(N2CCN(c3cc(C)c4c(c3)Nc3ncnc(N5CCS(=O)(=O)CC5)c3[C@@H](C)O4)CC2)C1 = 2.06e-05
• C=CC(=O)N1CC[C@@H](N2CC(c3cc4c(c(C5CC5)c3)O[C@H](C)c3c(ncnc3N3CCS(=O)(=O)CC3)N4)C2)C1 (single isomer, unassigned) = 2.16e-05
• C=CC(=O)N1CC(N2CCC(c3cc(C)c4c(c3)Nc3ncnc(N5CC(CO)C5)c3CO4)CC2)C1 = 5.21e-05
• C=CC(=O)N1CC[C@H](N2CC(c3cc4c(c(C)n3)OCc3c(ncnc3N3CCS(=O)(=O)CC3)N4)C2)C1 (single isomer, unassigned) = 3.85e-05

Consider the record given below.
Entry C=CC(=O)N1CC(N2CCC(c3cc(F)c4c(c3)Nc3ncnc(N5CCOCC5)c3CO4)CC2)C1 needs its kinact filled in; supply it. 4.85e-05
